Recorded Binding / Expression ratio (45degrees), one value per entry.
Molecular target: 4-1BB (coated on ELISA plate) (UniProt Q07011 24-186, limits assumed)
Experiment: ELISA, binding OD450 / expression OD450, after 45 °C 30 min
Answer as a number with no unit attached.

In the examples that follow, each entry is paired with its recorded Binding / Expression ratio (45degrees).
Request: # Binding / Expression ratio (45degrees) lookup, item 5D9 (ligand, also called 4-1BBL variant 5D9 (phagemid clone, bacterial supernatant)) 4-1BBL variant: ACPWAVSGARASPGSAASPRLREGPELSPDDPAGLLDLRQGMFAQLVAQNVLLIDGPLSFYSDPGLAGVSLTGGLSYKEDTKELVVAKAGVYYVFFQLELRRVVAGTGSGSVSLALHLQPLRSAAGAAALALTVDLPPASSEARNSAFGFQGRLLHLSAGQRLGVHLHTEARARHAWQMTQGATVLGLFRVTPEIPAGLPSPRSE
Result: 0.537

Request: Which Binding / Expression ratio (45degrees) value is on record for 1D2 (ligand, also called 4-1BBL variant 1D2 (phagemid clone, bacterial supernatant)) 4-1BBL variant: ACPWAVSGARASPGSAASPRLREGPELSPDDPAGLLDLRQGMFAQLVAQNVLLIDGPLSWYEDPGLAGVSLTGGLSYKEDTKELVVAKAGVYYVFFQLELRRVVAGTGSGSVSLALHLQPLRSAAGAAALALTVDLPPASSEARNSAFGFQGRLLHLSAGQRLGVHLHTEARARHALQLTQGATVLGLFRVTPEIPAGLPSPRSE ?
Result: 0.553

# ---- query binder ----
Request: Endpoint output: Binding / Expression ratio (45degrees) of 4C2 (ligand, also called 4-1BBL variant 4C2 (phagemid clone, bacterial supernatant)) 4-1BBL variant: ACPWAVSGARASPGSAASPRLREGPELSPDDPAGLLDLRQGMFAQLVAQNVLLIDGPLSWYPDPGLAGVSLTGGLSYKEDTKELVVAKAGVYYVFFQLELRRVVAGRGSGSVSLALHLQPLRSAAGAAALALTVDLPPASSEARNSAFGFQGRLLHLSAGQRLGVHLHTEARARHAWQFTQGATVLGLFRVTPEIPAGLPSPRSE . Value?
Result: 0.506

Origin of the recorded values: patent US20260193315A1
